Taken from ChEMBL document CHEMBL1201862.

# Test system: SK-MEL-2
# EXPERIMENT_NOTES: NCI tumour cell line growth inhibition, 48 h
Activity calls are given as the source filed them. Cut-off read from the data, not from the text of the source: active = GI50 up to about 1.1 µM and inactive = higher.
Permitted responses: 1 (yes) = active, 0 (no) = inactive

# lookup: test call for N=C(c1ccccc1)N(O)C1CCCCC1
0 (no)

I would be grateful if you could indicate the recorded call for Cn1c(=O)cc2[nH]c3ccccc3n2c1=O .
0 (no)

Entry COc1ccc2c(c1)C(=O)CCc1cc(OC)c(OC)c(OC)c1-2 : call = ?
1 (yes)

Look up the recorded call for Cc1cn([C@H]2C[C@@H]3[C@@H](COC(CCl)N3O)O2)c(=O)[nH]c1=O (some centres not stated) in this test.
0 (no)

Identify the outcome logged in this assay for the compound shown: CCCCCCCC(=O)NS(=O)(=O)c1ccccc1
0 (no)

Please let me know the test result on file for [O-][S+](Cc1ccccc1)c1nc2ccccc2nc1-c1cccs1 (configuration not stated) .
0 (no)

Answer briefly: the call reported for Sc1nnc(COc2ccc(Cl)cc2)n1-c1ccccc1 in this assay.
0 (no)

What classification did N#Cc1c(N)nc(SCc2ccccc2)c(C#N)c1-c1ccc(O)cc1 end up with in this test?
0 (no)

Dear all, I need the recorded test outcome for CC1(C)OP(=O)(O)C=C1Sc1ccc([N+](=O)[O-])cc1[N+](=O)[O-] , thank you.
0 (no)

Tell me the assay call for CC(C)C(=O)NCC[C@@H](CNC(=O)OC(C)(C)C)NC(=O)OC(C)(C)C please.
0 (no)

Tell me the assay call for C=Cc1ccccc1C1(O)C=CC(OC)(OC)C=C1 please.
0 (no)

Assay outcome for C[C@@]1(CO)[C@H](O)CC[C@@]2(C)[C@H]1CC[C@H]1C[C@@H]3C[C@@]12CC[C@@]3(O)COC(=O)CN : what was it?
0 (no)

// outcome(item) with item = CC1CC(Br)C(=O)O1 (configuration not stated)
0 (no)

Recorded test outcome, item Cc1cc(Cl)nc(Nc2nc3ccccc3[nH]2)n1
0 (no)

Any idea what this test logged for CCOC(=O)N1CCC(N[C@@H]2c3cc4c(cc3[C@@H](c3cc(OC)c(O)c(OC)c3)[C@H]3C(=O)OC[C@@H]32)OCO4)CC1 ?
0 (no)

Please indicate how the test categorized O=c1c2ccccc2[se]n1-c1cccnc1 .
0 (no)

Test call, this compound: Cc1ccc2c(c1)-c1c3c(nn1C)-c1ccccc1SC3O2 (configuration not stated)
0 (no)

Recorded call for COc1ccc(Cc2cc3c(cc2OCC(=O)O)OCO3)cc1 ?
0 (no)

Per the records of this test, what outcome belongs to FC(F)(F)c1nc2cc(SSc3cc4nc(C(F)(F)F)[nH]c4cc3Cl)c(Cl)cc2[nH]1 ?
0 (no)

For Oc1ccc2c(c1)-c1c(c3ccccc3n1CCN1CCOCC1)CC2 , which call appears in the assay record?
0 (no)

Assay outcome for Cc1cc(-c2ccccc2)nc(Nc2cc3ccccc3[nH]2)n1 : what was it?
0 (no)

Call for entry Cc1nc(-n2nc(-c3ccccc3)cc2-c2ccccc2)sc1C(/C=C/c1ccc([N+](=O)[O-])cc1)=N/NC(N)=S :
0 (no)

* * *

# Test system: UACC-257
# EXPERIMENT_NOTES: NCI tumour cell line growth inhibition, 48 h
Activity calls are given as the source filed them. No stated cut-off is given here; in the data, active = GI50 up to about 1.1 µM and inactive = higher.
RECORDED_ENDPOINT: GI50

For UACC-257, provide GI50 of CC(C)NC(=O)OCc1c(COC(=O)NC(C)C)c(-c2cc[n+](COC(=O)CC(C)(C)C)cc2)n2c1CCC2 please.
> 100 µM (inactive)

Form field - read-out: GI50; system: UACC-257; submitted item: C1CCC(OC2CSC2)OC1 (stereo not given)
> 100 µM (inactive)

Request: GI50, test system UACC-257, entry O=C1C=C2CC[C@H]3[C@@H]4CC[C@H](Oc5c6ccccc6nc6ccccc56)[C@H]4CC[C@@H]3[C@H]2CC1
35.6 µM (inactive)

Value wanted: GI50 (UACC-257) of entry O=C(O/N=C1/CCC/C1=C\c1ccccc1)c1ccc(Cl)cc1
> 100 µM (inactive)

# returns recorded GI50 (system: UACC-257) for CC(C)(C)OC(=O)NC(Cc1ccc(OCc2ccccc2)cn1)C(=O)N1CCSCC1 (stereo not given)
26.4 µM (inactive)

Find GI50 (UACC-257) for the entry O=S(=O)(O)c1ccc2c(/N=N/c3ccc(S(=O)(=O)O)c4ccccc34)c(O)c(S(=O)(=O)O)cc2c1
> 100 µM (inactive)

// map COc1cc(CC(=O)c2cc3c(cc2-c2ccccc2)OCO3)cc(OC)c1OC to recorded GI50 (system: UACC-257)
23.4 µM (inactive)

What reported GI50 corresponds to C=C(CN(CC(=C)C(=O)c1ccccc1)C(C)(C)C)C(=O)c1ccccc1 on UACC-257?
17 µM (inactive)

// lookup GI50 | system=UACC-257 | key= COc1cc(C2C3C=CC=C4CC=CC(=C43)C3CCC(=O)N32)cc(OC)c1OC (stereo not given)
> 100 µM (inactive)

Param readout = GI50; param system = UACC-257; param query = C=CCc1cccc2cc(C(=O)Nc3nc(C45CC6CC(CC(C6)C4)C5)cs3)c(=O)oc12 ; response: value
32.8 µM (inactive)

* * *

# Test system: RPMI-8226
# EXPERIMENT_NOTES: NCI tumour cell line growth inhibition, 48 h
The source made the active and inactive calls. Rule as the data show it: active = GI50 up to about 1.1 µM and inactive = higher.
Could you please pick one outcome from this set? label 1 for active, label 0 for inactive

Query: recorded result category for CC[C@@H](C)[C@@H]1NC(=O)C(C(C)=O)=C1O in this test
label 0

Could you kindly confirm the outcome this assay logged for CCCCC(=O)OC[n+]1ccc2c(C)c3[nH]c4ccccc4c3c(C)c2c1 ?
label 1

How was NC(=O)C(C(N)=O)=C(O)/C(O)=C/C(=O)c1ccccc1 classified in this test?
label 0

What classification did N#Cc1cc(C#N)c(N)nc1N end up with in this test?
label 0

Identify the outcome logged in this assay for the compound shown: COc1ccc(C2=C(OC(C)=O)c3cccn3-c3ccc(Cl)cc3S2)cc1
label 0

Hi team, can someone confirm the assay call for C=CC(Cl)(CBr)CCC(Br)=C(C)C (stereo unspecified) ?
label 0

* * *

# System: NCI-H226
# EXPERIMENT_NOTES: NCI tumour cell line growth inhibition, 48 h
Active and inactive are the calls of the source. Rule as the data show it: active = GI50 up to about 1.1 µM and inactive = higher.
RECORDED_ENDPOINT: GI50

What value of GI50 has been recorded for this entry: Cc1cn(CC2=NCCN2)c(=O)[nH]c1=O
> 100 µM (inactive)

// returns reported GI50 for input OCC12C3C4C1C1C2C3C41CO (centres undefined)
> 100 µM (inactive)

Which measured GI50 value corresponds to Cc1cc2c(C)nn(Cc3ccc(Cl)cc3Cl)c2c(C#N)c1C ?
> 100 µM (inactive)

Tell me the measured GI50 of Cc1nc2c(=O)[nH]c3ccc(Cl)cc3c2o1 , please.
> 100 µM (inactive)

# input compound: CC1C2(C)OC(=N)C(C#N)(C(c3cccc([N+](=O)[O-])c3)O2)C1(C#N)C#N (centres undefined) ; wanted: its GI50
> 100 µM (inactive)

Data request, read-out GI50, for Cn1c(=O)cc2[nH]c3ccccc3n2c1=O
55.6 µM (inactive)

Field request: GI50 | item: CN1C(=O)C2C=CC1C1CCC2N(C)C1=O (centres undefined)
> 100 µM (inactive)

What GI50 value was documented for this compound, CCOC(=O)N(CC)c1c(C(F)(F)F)cc(-c2ccccc2)[nH]c1=O ?
> 100 µM (inactive)

Would you kindly share the measured GI50 for CCO[C@H]1O[C@@H]2OC3(C)CCC4[C@H](C)CCC([C@H]1C)[C@]42OO3 (some centres undefined) ?
> 100 µM (inactive)

Value lookup for GI50; key = Cc1cc2c(cc1C)N1C(Cl)=C3CCCCC3=C(C#N)C1N2 (centres undefined)
13.5 µM (inactive)

Sample CC1=C(O)C(=O)C2C(=O)C1C(C)C2c1ccc(Cl)cc1 (centres undefined) — what was its GI50?
> 100 µM (inactive)

Looking for the measured GI50 of O=C(CSCC(=O)N/N=C\c1ccc(-c2ccccc2)cc1)N/N=C\c1ccc(-c2ccccc2)cc1 , can you help?
28.8 µM (inactive)

What does the record list as GI50 for CCOC(=O)c1c(CN2CCOCC2)n(Cc2ccccc2)c2c1cc(O)c1nc(C)c(C)nc12 ?
45.5 µM (inactive)

// GI50 lookup, key: CN(C(=O)c1ccc(Cl)cc1)C(=S)N1CCN(c2ccccc2)CC1
47.5 µM (inactive)

Requested read-out: GI50. Entry: CCCCCCCCCCCC(=O)N(CCCCCCCCCCC(=O)O)CC(O)C(O)C(OC1OC(CO)C(O)C(O)C1O)C(O)CO (centres undefined)
> 100 µM (inactive)

May I ask what GI50 has been recorded for CC(C)OC(=O)Nc1c([N+](=O)[O-])cc(C(F)(F)F)cc1[N+](=O)[O-] ?
> 89.1 µM (inactive)

Requested read-out: GI50. Entry: COc1ccc(NC(=O)/C(CC2=Nc3ccc([N+](=O)[O-])cc3NC2O)=N\NC(=O)C[N+](C)(C)C)c(OC)c1 (centres undefined)
> 100 µM (inactive)

Requested read-out: GI50. Entry: CCOC(=O)C(SCCO)C(C(=O)OCC)n1ccc(N)nc1=O (centres undefined)
> 100 µM (inactive)

Returns the measured GI50 for the input compound. Input: O=C(CC1Sc2ccccc2NC1=O)Nc1cccc(Cl)c1 (centres undefined)
26.8 µM (inactive)

GI50 for CN(C)CCc1ccnc2nc(-c3ccc4ccccc4c3)cn12 ?
27.8 µM (inactive)

For the compound shown here, O=C1/C(=C/c2ccc(Cl)cc2)CCC1CCN1CCOCC1 (centres undefined) , give the reported GI50.
> 100 µM (inactive)

Fill in: GI50 of CCC(C)CN1C(=O)NC(C)(Cc2ccccc2)C1=O (centres undefined) is ___
> 100 µM (inactive)

Quick one: GI50 for Cc1cc(C)c(C(=O)OC(c2ccccc2)C(c2ccccc2)N2CCOCC2)c(C)c1 (centres undefined) ?
> 100 µM (inactive)

Using the record for O=C1Nc2ccc(S(=O)(=O)O)cc2/C1=N/Nc1ccccc1[N+](=O)[O-] , report its GI50.
> 100 µM (inactive)

Could you share which GI50 value was measured for CN1CC2(CCCCC2)C(O)C12C=CCCC2 (centres undefined) ?
> 100 µM (inactive)

Returns the measured GI50 for the input compound. Input: COC(=O)[C@H](CCSC)NC(=O)N[C@H](C)c1ccccc1
> 100 µM (inactive)

If you can, please state the reported GI50 value of [N-]=[N+]=Nc1ccccc1-[n+]1noc([O-])c1Br .
> 100 µM (inactive)

Quick check: GI50 of CC(C)CC(NC=O)C(=O)NC(Cc1ccccc1)NC(=O)CNC(=O)C(C)NC(=O)OC(C)(C)C (centres undefined) ?
> 100 µM (inactive)

Can you look up the measured GI50 of CC(C)n1c(=O)c2nn3c(=O)n(C(C)C)c(=O)c3nn2c1=O for me?
> 100 µM (inactive)

Entry Oc1ncnc2c1nnn2CCCn1nnc2c(O)ncnc21 : reported GI50 = ?
> 100 µM (inactive)

Report GI50 for NC(=O)C(C(N)=O)=C(O)/C(O)=C/C(=O)c1ccccc1 please.
> 100 µM (inactive)

Which value of GI50 has been reported for COc1cc2c(cc1OC)-c1cc3ccccc3c(=O)n1CCC2 in the records?
12.6 µM (inactive)

Query (compound): COC(=O)[C@@H]1CC(C(CN)c2cn(C(=O)OC(C)(C)C)c3ccccc23)C(=O)N1C(=O)OC(C)(C)C (some centres undefined) ; field requested: GI50
29.9 µM (inactive)

Record request: GI50 value, item CC(C)NC(=O)OCc1c(COC(=O)NC(C)C)c(-c2cc[n+](COC(=O)CC(C)(C)C)cc2)n2c1CCC2
> 100 µM (inactive)

Please look up its GI50: COc1cc(C(C)O)c[n+](Cc2ccccc2)c1 (centres undefined)
> 100 µM (inactive)

Find the recorded GI50 belonging to CN(C)C(=S)C(Cl)(c1ccccc1)c1ccccc1 and report it.
53.7 µM (inactive)

Can you look up the measured GI50 of NNC(=O)c1c(-c2cccnc2)cnc2ccccc12 for me?
> 100 µM (inactive)

Give its GI50 value. Item: N#Cc1cc(C#N)c(N)nc1N
> 100 µM (inactive)

Which GI50 value belongs to CCOC(=O)c1[nH]cc(C)c1-c1c[nH]c2ccccc12 ?
19.9 µM (inactive)

Name the reported GI50 value associated with the compound CCCCCCC(O)C(O)CCC(O)C1CCC(CCCCC(O)CC2=CC(C)OC2=O)O1 (centres undefined)
1.74 µM (inactive)

Any idea what GI50 was measured for COc1ccc2oc(=N)c(C(=O)Nc3cccc4ccccc34)cc2c1 ?
25.5 µM (inactive)

Tell me the measured GI50 of C=CCN1CN(C2CCCCC2)CSC1=S , please.
14.6 µM (inactive)

Could you tell me which GI50 is on file for CC(=O)c1cccn1/C=C(\OC(=O)OC(C)(C)C)c1ccc[nH]1 ?
33.2 µM (inactive)

Quick check: GI50 of O=c1[nH]c(=O)n(C2OC(CO)C(O)C2O)cc1OCCc1ccccc1 (centres undefined) ?
> 100 µM (inactive)
